- Test Protocol: Determination of compound Cmax and AUC
- Assay type: in vivo
- Experimental Setup: rat; Sprague-Dawley rats, oral gavage, serum 0.5-4 h; actual oral dose (mg/kg) given
Result Type: Cmax

CN1Cc2c(Cl)cc(Cl)cc2C(c2cccc(S(=O)(=O)NCCOCCOCCOCCOCCOCCOCCOCCOCCOCCOCCNC(=O)CCOCCOCCOCCOCCOCCOCCOCCOCCOCCC(=O)NCCOCCOCCOCCOCCOCCOCCOCCOCCOCCOCCNS(=O)(=O)c3cccc(C4CN(C)Cc5c(Cl)cc(Cl)cc54)c3)c2)C1 (stereo not drawn) ... < 10 ng/mL
CN1Cc2c(Cl)cc(Cl)cc2C(c2cccc(S(=O)(=O)NCCOCCOCCOCCNC(=O)C(=O)NCCOCCOCCOCCNS(=O)(=O)c3cccc(C4CN(C)Cc5c(Cl)cc(Cl)cc54)c3)c2)C1 (stereo not drawn) ... < 10 ng/mL

Could you now look at the following compound, please?
Inquiry: What value of measured Cmax is listed for CN1Cc2c(Cl)cc(Cl)cc2[C@H](c2ccc(S(=O)(=O)NCCOCCOCCOCCNC(=O)C(O)C(O)C(=O)NCCOCCOCCOCCNS(=O)(=O)c3ccc([C@@H]4CN(C)Cc5c(Cl)cc(Cl)cc54)cc3)cc2)C1 (single isomer, unassigned) ?
Reply text: < 3.5 ng/mL

====

- Test Protocol: Parallel artificial membrane permeability assay (PAMPA)
- Experimental Setup: pH 7.4
Result Type: Papp A→B at 3 h, 20 uM (×10⁻⁶ cm/s)

Known results for molecules:
NC(N)=Nc1nc(-c2ccc(N3CCN(CCO)CC3)cc2)c2cc(Cl)ccc2n1 ... 0.3
N=C(N)N1CCN(c2cccc(-c3nc(N=C(N)N)nc4ccc(Cl)cc34)c2)CC1 ... 0.99
CN1Cc2c(Cl)cc(Cl)cc2C(c2ccc(NC(=O)N[C@@H](CC(=O)O)C(=O)O)cc2)C1 (stereo partly drawn) ... 0.2
NC(N)=Nc1nc(-c2ccc(N3CCN(CC(=O)O)CC3)cc2)c2cc(Cl)ccc2n1 ... 0.1
CN1Cc2c(Cl)cc(Cl)cc2C(c2ccc(S(=O)(=O)Nc3ccc(P(=O)(O)O)cc3)cc2)C1 (stereo not drawn) ... 0.2
CN1Cc2c(Cl)cc(Cl)cc2C(c2ccc(S(=O)(=O)NCCN(CCNS(=O)(=O)c3ccc(C4CN(C)Cc5c(Cl)cc(Cl)cc54)cc3)CCNS(=O)(=O)c3ccc(C4CN(C)Cc5c(Cl)cc(Cl)cc54)cc3)cc2)C1 (stereo not drawn) ... 0.03
CN1Cc2c(Cl)cc(Cl)cc2C(c2cccc(NS(=O)(=O)NCCP(=O)(O)O)c2)C1 (stereo not drawn) ... 0.61
C/C(=C\c1cc(F)c(Oc2ccc(S(=O)(=O)NCCCP(=O)(O)O)cc2)c(F)c1)C(=O)N=C(N)N ... 1.3
CN1Cc2c(Cl)cc(Cl)cc2C(c2ccc(S(=O)(=O)Nc3ccc(CP(=O)(O)O)cc3)cc2)C1 (stereo not drawn) ... 0.3
CN1Cc2c(Cl)cc(Cl)cc2C(c2ccc(NC(=O)NCP(=O)(O)O)cc2)C1 (stereo not drawn) ... 0.1

1. CN1Cc2c(Cl)cc(Cl)cc2C(c2cccc(S(=O)(=O)NCCCS(=O)(=O)O)c2)C1 (stereo not drawn)
2. C/C(=C\c1cc(F)c(Oc2ccc(S(=O)(=O)Nc3ccc(CP(=O)(O)O)cc3)cc2)c(F)c1)C(=O)N=C(N)N
3. C/C(=C\c1cc(F)c(Oc2ccc(S(=O)(=O)NCCOCCOCCOCCn3cc(CO)nn3)cc2)c(F)c1)C(=O)N=C(N)N
Inquiry: Parameters: sort_field (Papp A→B at 3 h, 20 uM), sort_dir (desc). // respond by listing labels in the order requested
Reply text: 2, 3, 1

P. C/C(=C\c1cc(F)c(Oc2ccc(S(=O)(=O)NCCCS(=O)(=O)O)cc2)c(F)c1)C(=O)N=C(N)N
Q. C/C(=C\c1cc(F)c(Oc2ccc(S(=O)(=O)N(CC(=O)O)CP(=O)(O)O)cc2)c(F)c1)C(=O)N=C(N)N
Inquiry: Param pair: P , Q . Output: the one whose Papp A→B at 3 h, 20 uM is numerically greater. Your answer should be the label attached to the chosen record.
Reply text: Q
(Q: 1.65 ×10⁻⁶ cm/s, P: 0.45 ×10⁻⁶ cm/s)
